- System: KCNQ channels
- method_description: Thallium flux assay for KCNQ channel openers
- Type: cell-based
- condition: thallium flux, 10 point concentration series; HEK-293 cells stably transfected with a KCNQ family member
pEC50: −log10 of the molar value.
Each entry below carries its recorded pEC50.
measurement_label: pEC50

[[record]]
compound = "COc1cccc(CNC(=O)c2sc(-c3cc(F)ccc3OC)nc2C(F)(F)F)c1 [Example 45]"
result = "4.70 to 6.00"

[[record]]
compound = "CC(NC(=O)c1sc(-c2ccccc2Cl)nc1C(F)(F)F)c1cccc(N(C)C)c1 (stereo not shown) [Example 50]"
result = "6.00 to 7.30"

[[record]]
compound = "CC(NC(=O)c1sc(-c2ccccc2N2CCOCC2)nc1C(F)(F)F)c1cccc(C(F)(F)F)c1 (stereo not shown) [Example 56]"
result = "6.00 to 7.30"

[[record]]
compound = "C[C@@H]1CN(c2cccc([C@H](C)NC(=O)c3sc(-c4ncccc4CN4CCOCC4)nc3C(F)(F)F)c2)C[C@H](C)O1 [Example 64]"
result = "6.00 to 7.30"

[[record]]
compound = "COc1ccccc1-c1nc(C(F)(F)F)c(C(=O)NC(C)c2cccc(NC(=N)N)c2)s1 (stereo not shown) [Example 40]"
result = "4.70 to 6.00"

[[record]]
compound = "CCN(Cc1cccnc1-c1nc(C(F)(F)F)c(C(=O)N[C@@H](C)c2cccc(N3C[C@@H](C)O[C@@H](C)C3)c2)s1)C(C)C [Example 65]"
result = "6.00 to 7.30"

[[record]]
compound = "COc1ccccc1-c1nc(C(F)(F)F)c(C(=O)NC(C)c2cccc(N(C)C)c2)s1 (stereo not shown) [Example 25]"
result = "4.70 to 6.00"

